system: Fibroblast; assay: Incucyte cell viability with human fibroblast; format: toxicity, cell-based; conditions: 18 h, 10 µM, compound concentration 10 uM, replicate number 2; further: unitless GR value; below 1 slowed growth and below 0 cell loss
Parameter Measured: Growth Rate
Numbers only.

Below are worked cases with known answers.
O=C(O)c1ccc(CN2C[C@@H]3C[C@H]2CN3Cc2ccc(Oc3ccc(-c4ncco4)cc3)cc2)cc1 ... 0.62
C[C@@H](NC(=O)Cc1ccc(C2CC2)cc1)c1ccc(OCC(F)(F)F)cn1 ... 0.93
CCOC(=O)C1Cc2ccccc2CN1C(=O)c1ccc(SC)s1 (centres undefined) ... 0.63
CN(C)C/C=C/C(=O)Nc1cc2c(Nc3ccc(F)c(Cl)c3)ncnc2cc1OC[C@@H]1CCCO1 ... -0.29
Oc1cccc(Nc2ccnc3[nH]c4ccccc4c23)c1 ... 0.18
CC(C)c1ccc(CC(=O)N[C@H](C)c2ccc(OCC(F)(F)F)cn2)cc1 [SUVECALTAMIDE] ... 0.84
N#CN1CC[C@@H](C(=O)Nc2nc3c(s2)CN(C(=O)CN=[N+]=[N-])CC3)C1 ... 0.75
COc1cc(Nc2ccc([N+](=O)[O-])cc2C(=O)O)cc2ccccc12 ... 0.45

Kindly consider the entry below.
Exercise: Data request, read-out Growth Rate, for `CCOC(=O)Nc1ccc2c(c1)N(C(=O)CN(CC)CC)c1ccccc1CC2`
Solution: 0.53

----------
I'd be grateful if you could share measured Growth Rate for these entries.
test system: U2OS; test: Incucyte cell viability with U2OS; type: toxicity, cell-based; details: human, 18 h, 10 µM, compound concentration 10 uM, replicate number 1; further: unitless GR value; below 1 slowed growth and below 0 cell loss
Answers are plain numbers.

Below are worked cases with known answers.
O[C@]1(C(F)(F)F)CCCC[C@H]1Nc1ccc(F)cc1 [BAY-390] ... 0.69
CCCCNc1ncc2c(-c3ccc(CN4CCN(C)CC4)cc3)cn([C@H]3CC[C@H](O)CC3)c2n1 ... 0.13
NCc1ccc(OCCCc2sc(-c3ccc4c(c3)/C(=N/Nc3nc5ccccc5s3)CCC4)nc2C(=O)O)cc1 ... 0.63
C=CC(=O)N1CCC[C@@H](n2nc(-c3ccc(Oc4ccccc4)cc3)c3c(N)ncnc32)C1 [IBRUTINIB] ... 0.56
CCCCCCCC/C=C\CCCCCCCC(=O)NCCO [OLEOYLETHANOLAMIDE] ... 0.81
CCN1CCN(Cc2ccc(NC(=O)Nc3ccc(Oc4cc(NC)ncn4)cc3)cc2C(F)(F)F)CC1 [AST-487] ... 0.36
Cc1ccc2c(NS(=O)(=O)c3ccccc3Cl)cccc2c1Oc1ncccc1-c1ccnc(N[C@H]2CCCNC2)n1.Cl ... 0.69

Kindly consider the entry below.
Exercise: Data request, read-out Growth Rate, for CC(C)(C)c1cnc(CSc2cnc(NC(=O)C3CCN(CC(=O)NCCOCCOCCOCCNc4cccc5c4C(=O)N(C4CCC(=O)NC4=O)C5=O)CC3)s2)o1 (stereo not drawn)
Solution: 0.16

----------
test system: Fibroblast; assay: Incucyte cell viability with human fibroblast; type: toxicity, cell-based; details: 0 h, 10 µM, compound concentration 10 uM, replicate number 2; further: unitless GR value; below 1 slowed growth and below 0 cell loss
Response key: Condition met means Growth Rate >= -0.7; Condition not met means Growth Rate < -0.7.

Below, 3 molecules whose answers are already recorded.
CC1CCN(C(=O)[C@@H](CCn2cccc2C#N)NS(=O)(=O)c2cccc3[nH]ccc23)CC1 ... Condition not met
O=S(=O)(Nc1ccc(C(O)(C(F)(F)F)C(F)(F)F)cc1)c1cccs1 ... Condition met
O=S1(=O)NCN(C2CC2)c2ccc(F)cc21 ... Condition met

Exercise: Hello, I need to know if `O=C(O)/C=C/c1ccc(Cn2ccnc2)cc1` has measured Growth Rate not below -0.7. Thanks!
Solution: Condition not met

Exercise: Hello, I need to know if CC(Sc1nc2c(cnn2-c2cccc(Cl)c2)c(=O)[nH]1)C(N)=O (stereo not drawn) has measured Growth Rate not below -0.7. Thanks!
Solution: Condition not met

Exercise: Hello, I need to know if `CC(C)(C#Cc1ccc(NC(=O)COc2ccccc2C(=O)c2ccccc2)c(Cl)c1)C(=O)O` has measured Growth Rate not below -0.7. Thanks!
Solution: Condition met

Exercise: Hello, I need to know if `CCN1C(=O)N(c2c(F)c(OC)cc(OC)c2F)Cc2cnc3[nH]c(CN4CCOCC4)cc3c21` has measured Growth Rate not below -0.7. Thanks!
Solution: Condition met

Exercise: Hello, I need to know if `COCCCS(=O)(=O)c1cc(C)c(-c2ccc(F)c3c2CC[C@H]3Oc2ccc3c(c2)OC[C@H]3CC(=O)O)c(C)c1` has measured Growth Rate not below -0.7. Thanks!
Solution: Condition met

Exercise: Hello, I need to know if CC(C(=O)Nc1cc(C#N)ccc1CCCC(=O)O)c1ccc(F)c2ccccc12 (stereo not drawn) has measured Growth Rate not below -0.7. Thanks!
Solution: Condition not met

Exercise: Hello, I need to know if `N=C(N)NCCC[C@H](NC(=O)CC1(CC(=O)N2CCN(C(c3ccccc3)c3ccccc3)CC2)CCCC1)C(=O)NCc1ccccc1.O=C(O)C(F)(F)F.O=C(O)C(F)(F)F` has measured Growth Rate not below -0.7. Thanks!
Solution: Condition not met

Exercise: Hello, I need to know if `Cn1cc(-n2cnc3c(NCc4nc5cc(Cl)c(Cl)cc5[nH]4)nc(N4CCOCC4)nc32)cn1` has measured Growth Rate not below -0.7. Thanks!
Solution: Condition met

Exercise: Hello, I need to know if `CC[C@]1(C)C[C@@H](OC(=O)CSc2nnc(N)[nH]2)[C@@]2(C)[C@H](C)CC[C@@]3(CCC(=O)[C@H]32)[C@@H](C)[C@@H]1O` has measured Growth Rate not below -0.7. Thanks!
Solution: Condition met

Exercise: Hello, I need to know if `CC(C)(C)c1cc(C(C)(C)C)c(NC(=O)c2c[nH]c3ccccc3c2=O)cc1O` has measured Growth Rate not below -0.7. Thanks!
Solution: Condition not met

Exercise: Hello, I need to know if `CN1CCc2cc(Nc3ncc(C(F)(F)F)c(NCc4cc[nH]n4)n3)ccc2C1` has measured Growth Rate not below -0.7. Thanks!
Solution: Condition met

Exercise: Hello, I need to know if `COc1ccc(-c2coc3cc(O)cc(O)c3c2=O)cc1` has measured Growth Rate not below -0.7. Thanks!
Solution: Condition met

Exercise: Hello, I need to know if CC(=O)N1CCN(c2ccc(OCC3COC(Cn4ccnc4)(c4ccc(Cl)cc4Cl)O3)cc2)CC1 (stereo not drawn) has measured Growth Rate not below -0.7. Thanks!
Solution: Condition not met

Exercise: Hello, I need to know if CN(C)CCCN1c2ccccc2Sc2ccc(Cl)cc21.Cl [CHLORPROMAZINE HYDROCHLORIDE] has measured Growth Rate not below -0.7. Thanks!
Solution: Condition met

Cited source: ChEMBL document CHEMBL5303304
